As shown below, each of these compounds has a reported Ki value.
# targetOfAssay: hNET (Homo sapiens, UniProt P23975)
# Construct: expressed in transfected cells; host or cells: HEK-293
# Sequence (P23975 whole entry): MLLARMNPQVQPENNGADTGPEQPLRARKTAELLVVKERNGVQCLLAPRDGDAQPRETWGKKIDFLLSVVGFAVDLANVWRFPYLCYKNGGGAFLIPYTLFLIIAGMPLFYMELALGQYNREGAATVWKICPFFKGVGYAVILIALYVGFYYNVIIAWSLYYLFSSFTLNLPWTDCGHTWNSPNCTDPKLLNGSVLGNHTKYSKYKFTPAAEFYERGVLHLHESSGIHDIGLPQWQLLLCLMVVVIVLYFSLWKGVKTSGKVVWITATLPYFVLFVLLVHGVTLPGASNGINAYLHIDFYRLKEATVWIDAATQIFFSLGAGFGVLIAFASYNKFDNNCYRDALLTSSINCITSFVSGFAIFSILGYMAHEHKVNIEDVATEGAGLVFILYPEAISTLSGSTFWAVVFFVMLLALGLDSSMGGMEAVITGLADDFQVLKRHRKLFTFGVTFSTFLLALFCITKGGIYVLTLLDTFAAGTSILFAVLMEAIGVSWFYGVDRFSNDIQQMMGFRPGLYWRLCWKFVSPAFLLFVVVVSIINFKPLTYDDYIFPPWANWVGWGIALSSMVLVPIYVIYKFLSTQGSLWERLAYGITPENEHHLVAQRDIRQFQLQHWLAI
# assayComment: hNET membrane radioligand binding assay (Assay 1, 3H-nisoxetine)
# details: Assay 1, membranes of HEK-293 cells expressing hNET; read-out: NET pKi (converted)
Respond with the bare value in nM.

- testSmiles: "Cc1ccccc1OCc1ccccc1C1CCNCC1"
  targetOfAssay: "hNET (Homo sapiens, UniProt P23975)"
  readoutUnits: "nM"
  readoutNumber: 31.6
- testSmiles: "Fc1ccccc1OCc1ccccc1C1CCNCC1"
  targetOfAssay: "hNET (Homo sapiens, UniProt P23975)"
  readoutUnits: "nM"
  readoutNumber: 5.01
- testSmiles: "c1ccc(OCc2ccccc2C2CCNCC2)cc1"
  targetOfAssay: "hNET (Homo sapiens, UniProt P23975)"
  readoutUnits: "nM"
  readoutNumber: 39.8

As a next step, examine the compound that follows.
Prompt: What Ki value was documented for this compound, Clc1ccccc1OCc1ccccc1C1CCNCC1 ?
Response: 31.6

====

# targetOfAssay: hSERT (Homo sapiens)
# Construct: expressed in transfected cells; host or cells: HEK-293
# Sequence (P31645 whole entry): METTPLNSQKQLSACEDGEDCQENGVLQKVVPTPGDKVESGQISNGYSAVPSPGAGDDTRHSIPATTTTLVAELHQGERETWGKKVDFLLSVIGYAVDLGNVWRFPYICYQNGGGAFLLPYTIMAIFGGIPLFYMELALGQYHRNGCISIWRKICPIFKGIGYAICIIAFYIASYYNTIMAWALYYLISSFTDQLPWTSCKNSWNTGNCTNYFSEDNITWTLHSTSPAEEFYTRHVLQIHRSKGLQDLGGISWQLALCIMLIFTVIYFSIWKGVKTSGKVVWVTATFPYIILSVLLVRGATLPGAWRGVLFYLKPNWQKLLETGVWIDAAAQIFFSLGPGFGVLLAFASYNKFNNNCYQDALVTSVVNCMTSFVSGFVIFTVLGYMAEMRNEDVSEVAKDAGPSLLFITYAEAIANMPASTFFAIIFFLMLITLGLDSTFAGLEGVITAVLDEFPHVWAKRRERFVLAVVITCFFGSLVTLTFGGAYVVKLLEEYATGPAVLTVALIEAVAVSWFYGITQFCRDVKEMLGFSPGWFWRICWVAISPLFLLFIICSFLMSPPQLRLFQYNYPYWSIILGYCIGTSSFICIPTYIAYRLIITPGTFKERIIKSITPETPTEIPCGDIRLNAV
# assayComment: hSERT membrane radioligand binding assay (Assay 1, 3H-citalopram)
# details: Assay 1, membranes of HEK-293 cells expressing hSERT; read-out: SERT pKi (converted)
Listed below: Ki values for each entry.
Express it in nM; write the number only.

Some compounds with known Ki results, for comparison:
- testSmiles: "Cc1ccccc1OCc1ccccc1C1CCNCC1"
  experimentalReadout: "Ki"
  readoutUnits: "nM"
  readoutNumber: 1.58
- testSmiles: "c1ccc(OCc2ccccc2C2CCNCC2)cc1"
  experimentalReadout: "Ki"
  readoutUnits: "nM"
  readoutNumber: 31.6
- testSmiles: "Fc1ccccc1OCc1ccccc1C1CCNCC1"
  experimentalReadout: "Ki"
  readoutUnits: "nM"
  readoutNumber: 12.6

Prompt: // lookup Ki | system=hSERT (Homo sapiens) | key= Clc1ccccc1OCc1ccccc1C1CCNCC1
Response: 3.98
